test system: C2A; test: qHTS profiling for inhibitors of Plasmodium falciparum proliferation (AID 504749); note: nearly all actives have a fitted effect of over 60% in size; details: P. falciparum in erythrocytes, SYBR Green DNA, 72 h; series mostly up to 28.7 µM
Results filed as inconclusive are left out. Active and inactive are the calls of the source. Calls come from the whole dose curve; as a rule, active = well fitted inhibition curve with a large enough effect; inconclusive = small, poorly fitted or top-dose-only effect; inactive = flat fitted curve, though single readings scatter.
Labels: yes = active, no = inactive

compound: COC1CC2CCC(C)[C@](O)(O2)C(=O)C(=O)N2CCCCC2C(=O)OC(C(C)CC2CCC(O)C(OC)C2)CC(=O)C(C)/C=C(/C)C(O)C(OC)C(=O)C(C)CC(C)C=CC=C/C=C\1C (some centres undefined)
label class: yes

compound: CC(C)(C)C(=O)OCC(=O)C1CCC2C3CCC4=CC(=O)CCC4(C)C3CCC12C (centres undefined)
label class: no

compound: CCCCC(=O)OCC(=O)[C@]1(O)Cc2c(O)c3c(c(O)c2[C@H](OC2CC(NC(=O)C(F)(F)F)C(O)C(C)O2)C1)C(=O)c1c(OC)cccc1C3=O (some centres undefined)
label class: yes

compound: C[C@@](Cc1ccccc1)(NC(=O)CN)c1ccccc1
label class: no

----------
test: AP1 Signaling Pathway (AID 357); conditions: ME-180 AP-1-bla reporter, EGF-induced, beta-lactamase ratio, 5 h; at 17.2 µM (top of the series) unless noted;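 note: ME-180 reporter cells stimulated with EGF at its EC50 level; % is set by controls: 0 for no effect and ±100 for the full control effect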
Records with an inconclusive call do not appear.

compound: Cc1cc(C(=O)O)c(CSc2ncn[nH]2)o1
activity change, negative = inhibition, %: 12.5

compound: COc1ccc(C2Nc3ccccc3C(=O)N2Cc2ccco2)cc1CN1C(=O)c2ccccc2C1=O (stereo unspecified)
activity change, negative = inhibition, %: -19.7

compound: COC(=O)C1C(=O)CC(C)(O)C(C(=O)OC)C1c1ccccc1F (stereo unspecified)
activity change, negative = inhibition, %: 0.159

compound: Cc1cc(C)n(C(=O)CNC(=O)C2COc3ccccc3O2)n1 (stereo unspecified)
activity change, negative = inhibition, %: 15.9

compound: Cc1ccc(SCc2[nH]nc3c2C(c2ccc(C)o2)C(C#N)=C(N)O3)cc1 (stereo unspecified)
activity change, negative = inhibition, %: -23.1

compound: Cc1nnc(SCc2nc3ccccc3[nH]2)s1
activity change, negative = inhibition, %: 1.21

compound: COc1ccc(OC(=O)c2cc3ccccc3o2)cc1
activity change, negative = inhibition, %: 1.41

compound: COC(=O)C(NC(=O)c1ccco1)(Nc1nc(C)cs1)C(F)(F)F (stereo unspecified)
activity change, negative = inhibition, %: -3.01

compound: O=S(=O)(O)c1nc2ccccc2n1Cc1ccc(Cl)cc1Cl
activity change, negative = inhibition, %: 18.6

compound: COCCNC(=O)c1c(N)n(CCC2=CCCCC2)c2nc3ccccc3nc12
activity change, negative = inhibition, %: 28.7

compound: N#CC1=C(N)N(c2ccccc2)C(c2ccccc2)C1(C#N)C#N (stereo unspecified)
activity change, negative = inhibition, %: -27.2

----------
target: alpha-glucosidase (Oryza sativa, rice) (UniProt Q653V4); experiment: Counterscreen for Glucocerebrosidase Inhibitors: qHTS Assay for Rice alpha-Glucosidase at pH 5.0 (AID 997); conditions: rice alpha-glucosidase enzyme activity; series mostly up to 76.9 µM;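 note: 0% = full activity with enzyme and -100% = basal without enzyme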
The source made the active and inactive calls. Calls come from the whole dose curve; as a rule, active = well fitted curve in the direction sought with a large enough effect; inconclusive = small, poorly fitted or top-dose-only effect, or another doubt; inactive = no such curve, though single readings can be large or run the other way.
observation type: outcome

structure smiles: NCCC[C@@](N)(C(=O)O)C(F)F
observation type: outcome
result: inactive

structure smiles: Clc1ccc(C(c2ccc(Cl)cc2)n2cc[n+](C[C@@H](OCc3ccc(Cl)cc3Cl)c3ccc(Cl)cc3Cl)c2)cc1
observation type: outcome
result: inactive

structure smiles: CCCCCCCCCCCCCCCCCCOC[C@@H](COP(=O)([O-])OCC[N+](C)(C)C)OC
observation type: outcome
result: inactive

structure smiles: CN1CCN([C@@H]2Cc3ccccc3Sc3ccc(Cl)cc32)CC1
observation type: outcome
result: inactive

structure smiles: CC(=O)O[C@@H]1C[C@]2(C)[C@H](C[C@@H](O)[C@H]3[C@@]4(C)CC[C@@H](O)[C@@H](C)[C@@H]4CC[C@@]32C)/C1=C(\CCC=C(C)C)C(=O)O
observation type: outcome
result: inactive

----------
activity change, negative = inhibition for assorted compounds
assay: AP1 Signaling Pathway (AID 357); conditions: ME-180 AP-1-bla reporter, EGF-induced, beta-lactamase ratio, 5 h; at 17.2 µM (top of the series) unless noted;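 note: ME-180 reporter cells stimulated with EGF at its EC50 level; % is set by controls: 0 for no effect and ±100 for the full control effect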
Records with an inconclusive call do not appear. Activity calls are given as the source filed them. Calls follow the shape of the dose curve; as a rule, active = well fitted curve in either direction with a large enough effect (not every such curve was filed as active); inconclusive = small, poorly fitted or top-dose-only effect, or another doubt; inactive = flat fitted curve, though single readings scatter.

compound: COc1ccc(Nc2oc(-c3cccs3)nc2C#N)cc1
activity change, negative = inhibition: -23.7% (inactive)
//
compound: S=C(N=Nc1ccccc1)NNc1ccccc1
activity change, negative = inhibition: 7.8% (inactive)
//
compound: C=CCn1c(SCC(=O)c2ccccc2)nnc1-c1ccc2c(c1)OCO2
activity change, negative = inhibition: -7.81% (inactive)
//
compound: Cc1nn2c(-c3ccc(Cl)cc3)nnc2s1
activity change, negative = inhibition: -4.06% (inactive)
//
compound: CCCCc1c(O)nc(SCCN(C)C)n(-c2ccccc2)c1=O
activity change, negative = inhibition: 10% (inactive)
//
compound: CSc1ccccc1NC(=O)c1c(Br)cnn1C
activity change, negative = inhibition: -8.39% (inactive)
//
compound: CC1(C(=O)CSc2ncn[nH]2)CCC(=O)O1 (stereo not given)
activity change, negative = inhibition: -3.81% (inactive)
//
compound: Cc1c(/C(O)=C2/C(=O)C(=O)N(CCN3CCOCC3)C2c2cccnc2)cnn1-c1ccccc1 (stereo not given)
activity change, negative = inhibition: -11.6% (inactive)
//
compound: CCCCCSc1nc(O)cc(=O)[nH]1
activity change, negative = inhibition: -9.05% (inactive)
//
compound: CC(CN1CCN(C)CC1)OC(=O)c1ccc(Cl)cc1Cl (stereo not given)
activity change, negative = inhibition: 12% (inactive)
//
compound: CCOc1cccc(-c2nn3c(-c4ccco4)nnc3s2)c1
activity change, negative = inhibition: -15.5% (inactive)
//
compound: O=S(=O)(c1ccccc1)N1CCC(N2CCCCCC2)CC1
activity change, negative = inhibition: 5.59% (inactive)
//
compound: CCC1CCCCN1c1nc(-c2cccc(OC)c2O)nc2ccccc12 (stereo not given)
activity change, negative = inhibition: -8.8% (inactive)
//
compound: COc1ccc2c(c1)[nH]c1c(=O)n(CC3CCCO3)cnc12 (stereo not given)
activity change, negative = inhibition: -4.81% (inactive)
//
compound: COc1cc2nc(N3CC=[N+](C(=O)c4ccco4)CC3)nc(N)c2cc1OC
activity change, negative = inhibition: -19.6% [at 38 µM] (inactive)
//
compound: c1cncc(-c2nnc3sc(-c4ccco4)nn23)c1
activity change, negative = inhibition: -2.13% (inactive)
//
compound: CCCc1nc(NC2CCCCC2)c(C#N)c2c1COC(C)(C)C2
activity change, negative = inhibition: 16.4% (inactive)
//
compound: CCOC(=O)CSc1nc2ccccc2c(=O)n1C
activity change, negative = inhibition: -12.5% (inactive)
//
compound: CN1C(=S)SC(N(O)C(=O)Nc2ccccc2)C1(C)C (stereo not given)
activity change, negative = inhibition: 1.19% (inactive)
//
compound: N#C/C(C(=O)NCc1ccco1)=C1/SC(Cc2ccc(F)cc2)C(=O)N1c1ccccc1 (stereo not given)
activity change, negative = inhibition: 1.52% (inactive)
//
compound: CCCC(C)n1[nH]c(=O)cc1N (stereo not given)
activity change, negative = inhibition: 11.2% (inactive)
//
compound: CSc1nc2sc3c(c2c(=O)[nH]1)CCC(C)C3 (stereo not given)
activity change, negative = inhibition: 7% (inactive)
//
compound: CC(=O)Nc1ccc(NCC(O)COc2ccccc2)cc1 (stereo not given)
activity change, negative = inhibition: -3% (inactive)
//
compound: CC(C(=O)NC(=O)NCc1ccccc1)N1C(=O)c2ccccc2C1=O (stereo not given)
activity change, negative = inhibition: -0.38% (inactive)
//
compound: CCOC(=O)CSC1=C(C#N)C(=O)NC2(CCCCC2)S1
activity change, negative = inhibition: -9.68% (inactive)

----------
As shown below, each of these compounds has a reported activity, negative = inhibition value.
assay: Stat Signaling Pathway (AID 446); conditions: ME-180 (cervical carcinoma) SIE beta-lactamase reporter, IL-6 stimulated, 5 h; at 17.2 µM (top of the series) unless noted;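 note: ME-180 cervical cancer cells given 40 pM IL-6 alongside compound; SIE-controlled beta-lactamase reporter measured as 460/530 nm FRET emission ratio; % is set by controls: 0 for no effect and ±100 for the full control effect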
Results filed as inconclusive are left out.

compound: Cn1c(OCc2cccnc2)nc2c1c(=O)n(Cc1ccccc1)c(=O)n2C
activity, negative = inhibition (%): 4.58
//
compound: C=C1[C@@H](C)C2[C@H](Cc3ccccc3)NC(=O)[C@]23OC(=O)CC[C@H](O)CCC[C@H](C)C/C=C/[C@H]3[C@@H]1O (stereo not given in full)
activity, negative = inhibition (%): -14.9
//
compound: CC(C)=CCC(C)(C)CNC(=O)NC1CCCCC1
activity, negative = inhibition (%): 10.9
//
compound: CCc1cc(=O)oc2cc(C)c(CN3CCCCC3)c(O)c12
activity, negative = inhibition (%): -6.86
//
compound: CCOC(=O)c1[nH]c2ccc(C)cc2c1N=CN(CC)CC
activity, negative = inhibition (%): 10.4
//
compound: CCOC(=O)c1c(C)n(C)c2ccc(O)c(S(=O)(=O)c3ccccc3)c12
activity, negative = inhibition (%): 11.2
//
compound: CCOC(=O)Cc1nnc(Nc2cccc(O)c2)c2ccccc12
activity, negative = inhibition (%): -17.1
//
compound: Cc1c(C2Nc3ccccc3NC3=C2C(=O)CC(C)(C)C3)cnn1C (stereo not given)
activity, negative = inhibition (%): 14.2
//
compound: CC1CCc2cc(F)cc3c(O)c(C(=O)NCC4CCCO4)c(=O)n1c23 (stereo not given)
activity, negative = inhibition (%): 1.8
//
compound: CCC(=O)OC1=C2C(=Nc3c(c(=O)n(C)c(=O)n3C)C2c2ccccc2)c2ccccc21 (stereo not given)
activity, negative = inhibition (%): 14.9
